Molecular target: Grb2 SH2 (UniProt P62993)
Sequence (P62993 whole entry, looked up, the tested form may be a part): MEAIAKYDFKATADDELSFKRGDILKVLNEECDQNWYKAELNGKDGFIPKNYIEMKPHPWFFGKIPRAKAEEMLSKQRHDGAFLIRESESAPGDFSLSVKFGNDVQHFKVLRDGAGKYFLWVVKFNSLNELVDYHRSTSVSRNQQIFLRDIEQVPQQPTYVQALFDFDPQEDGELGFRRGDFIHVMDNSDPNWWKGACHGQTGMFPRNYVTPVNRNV
Test: SH2 binding enrichment of the phosphorylated peptide, bacterial display (enrichment ratio); higher = better substrate or ligand; peptides without Tyr show the background;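 note: peptide library displayed on the E. coli surface as eCPX fusions, selected cells deep-sequenced, score is each peptide's frequency after selection divided by its frequency in the input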
measurement name: SH2 binding enrichment

Solved entries (count: 6):
FRSSLYLLMET [MYO5C_Y633] | 1.3
AEPPDYSPVTQ [ADGRG2_Y285_H290Q] | 0.82
AFRRGYFDEEM [PLEC_Y2971_YF] | 0.73
FGSSSYGGAGG [RPA2_Y14_YF] | 0.743
TTICKYITPME [GUCY2C_Y839_S840I] | 0.73
EEGNPYFSSAR [MCCC2_Y520_YF] | 0.769

Now let's try a different one.
(Q) Would you kindly share the measured SH2 binding enrichment for VVHSSYDEIEG [SEC24A_Y263] ?
(A) 1.03

This collection of values is drawn from the supplement of paper PMC10065799.
